B1: glmS ribozyme (parent)
chain: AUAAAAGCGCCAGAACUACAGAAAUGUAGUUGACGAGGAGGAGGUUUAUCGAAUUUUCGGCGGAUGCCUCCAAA

# Variants of: B1
# PROCEDURE_TEXT: self-cleavage kobs at 160 uM GlcN6P; higher = faster cleavage; RNA array
# CONDITION_NOTES: with glucosamine-6-phosphate
This sample holds only a part of the variants without activity.
REPORTED_METRIC: self-cleavage kobs at 160 uM GlcN6P (s⁻¹)

sequence_entry="AUAAAAGCGCCAGAACUACAGAAAUGUAGAUGACGAGGAGGAGGUUUAUCGACUUUUCGGCGGAUGCCUCCAAA [U30A A53C]" sign_qualifier== reported_value=0.000107
sequence_entry="AUAAAAGCGCCAGAACUACAGAAAUGUAGUUUACGAGUAGGAGGUUUAUCGAAGUUUCGGCGGAUGCCUCCAAA [G32U G38U U54G]" sign_qualifier=< reported_value=1e-05
sequence_entry="AUAAAAGCGCCAGAACUACAGAAAUGUACUUGACGAGGAGGAGGUGAAUCGAAUUUUCGGCGGAUGCCUGCAAA [G29C U46G U47A C70G]" sign_qualifier== reported_value=5.51e-05
sequence_entry="AUAAAAGCGCCAGAACUACAGAAAUGUAGUUGACGAGGAGGAGGUUUACAGAAUUUUCGGCGGAUGCCUCCAAA [U49C C50A]" sign_qualifier=< reported_value=1e-05
sequence_entry="AUAAAAGCGCCAGAACUACAGAAAUGUAGUUGACGAGGAUGAGGUUUAUCGAAUUUUAGGCGGAUGCCUCCAAA [G40U C58A]" sign_qualifier=< reported_value=1e-05
sequence_entry="AUAAAAGCGCCAGAACUACAGAAAUGUAGUUGACGAGGAGGAGGUUUAUCGAACUUUCGGCGGAUGCCUCCAAA [U54C]" sign_qualifier== reported_value=0.00345
sequence_entry="AUAAAAGCGCCAGAACUACAGAAAUGUAGUUGACGAGGAGGAGGUUUAUCGAGUUUUCGGCGGAUGGCUCCAAA [A53G C67G]" sign_qualifier== reported_value=0.000304
sequence_entry="AUAAAAGCGGCAGAACUACAGAAAUGUAGUUGACGAGGAGGAGGUUUAUCGAAUUUUCGCCGGAUGCCUCCAAA [C10G G60C]" sign_qualifier== reported_value=0.000167
sequence_entry="AUAAAAGCUUCAGAAUUACAGAAAUGUAGUUGACGAGGAGGAGGUUUAUCGAAUUUUCGGCGGAUGCCUCCAAA [G9U C10U C16U]" sign_qualifier=< reported_value=1e-05
sequence_entry="AUAAAAGCGCCAGAACUACAGAAAUGUAGUUGACGAGGAGGAGGCUUAUCGAAUUUUCGGCGGUUGCCUCCAAA [U45C A64U]" sign_qualifier=< reported_value=1e-05
sequence_entry="AUAAAAGAGUCAGAACUACAGAAAUGUAGUAGACGAGGAGGAGGUUUAUCGAAUUUUCGGCGGAUGCCUCCAAA [C8A C10U U31A]" sign_qualifier=< reported_value=1e-05
sequence_entry="AUAAAAGCGCAAGAACUACAGAAAUGUAGUUGAUGAGGAGGAGGUUUAUCGAAUUUUCGUCGGAUGCCUCAAAA [C11A C34U G60U C71A]" sign_qualifier=< reported_value=1e-05
sequence_entry="AUAAAAGCGCCAGAACUACAGAAAUGUAGUUGACGAGGAGGACGUUUAUCGAAAUUUCGCCGGAUGCCUCCAAA [G43C U54A G60C]" sign_qualifier=< reported_value=1e-05
sequence_entry="AUAAAAGCGCCAGACCUACAGAAAUGUAGUAGACGAGGAGGAGGUUUAUCGAAUUUUCGGCGGAUGCCUCCAAA [A15C U31A]" sign_qualifier== reported_value=0.000607
sequence_entry="AUAAAAGCGCCAGAAGUACAGAAAUGUAGUUGACGAGGAGGAGGUUUAUCGAAUUUUCGGCGGAUGUCUCCAAA [C16G C67U]" sign_qualifier== reported_value=0.000106
sequence_entry="AUAAACGAGCCAGAACUACAGAAAUGUAGUCGACGAGGAGGAGGUUUAUCGAAUUUUCGGCGGAUGCCUCCAAA [A6C C8A U31C]" sign_qualifier=< reported_value=1e-05
sequence_entry="AUAAAAGCGCCAGAACUACAGAAAUGUAGUUGACGAGGACGAGGUGUAUCGAAUUUUCGGCGGAUGCCUCCAAA [G40C U46G]" sign_qualifier== reported_value=7.1e-05
sequence_entry="AUAAAAGCGCCAGAACUACAGAAAUGUAGUUGACGAGGAGGCGGUUUAUCUAAUUUUCGGCGGAUGCCUCCAAA [A42C G51U]" sign_qualifier=< reported_value=1e-05
sequence_entry="AUAAAAGCGCCAGAACUACAGAAAUGUAGUUGACGAGGAGGAGAUUUAUCGAAUUUUCGGCGGAUGCCUACAAA [G44A C70A]" sign_qualifier=< reported_value=1e-05
sequence_entry="AUAAAAGCGCCAGAACUACAGAAAUGUAGUUGACGAGGGGAAGGUUUAUCGAAUUUUCUUCGGAUGCCUCCAAA [A39G G41A G59U G60U]" sign_qualifier=< reported_value=1e-05
sequence_entry="AUAAAAGCGCCAGAACUACAGAAAUGUAGUUGACGAGGAGGAGGUUUAUCGAAUUUUAGGCGGAUGCCUCUAAA [C58A C71U]" sign_qualifier== reported_value=4.42e-05
sequence_entry="AUAAAAGCGCCAGGACUACAGAAAUGUAUUUGACGAGGAGGAGGUUUAUCGAAUUUUCGGCGGAUGCCUCCAAA [A14G G29U]" sign_qualifier== reported_value=0.00105
